target: Eukaryotic elongation factor 2 kinase (Homo sapiens); experiment: Inhibition of GST-tagged EEF2K (unknown origin) at 20 uM using biotinylated EEF2 peptide substrate by HTRF assay relative to control
EXPERIMENTAL_READOUT: inhibition (%)

Look over these answered cases.
substance_smiles=CCNc1cc(-c2ccc(NC(=O)Nc3c(C)cccc3C)cc2C(F)(F)F)ccn1 unit_descriptor=% value_measured=44
substance_smiles=CCNc1cc(-c2ccc(NC(=O)Nc3cccc(Cl)c3)cc2C)ccn1 unit_descriptor=% value_measured=73.4

P = CCNc1cc(-c2ccc(NC(=O)Nc3ccc(OC)cc3)cc2C(F)(F)F)ccn1
Q = CCNc1cc(-c2ccc(NC(=O)Nc3ccccc3Cl)cc2C)ccn1
R = O=C(Nc1ccc(C(F)(F)F)cc1)Nc1ccc(-c2ccnc(NCC3CC3)c2)c(C(F)(F)F)c1
Write the entries in order, lowest recorded inhibition first. List each label, following the requested order.
R, Q, P

a = CCNc1cc(-c2ccc(NC(=O)Nc3cc(C(F)(F)F)cc(C(F)(F)F)c3)cc2C(F)(F)F)ccn1
b = CCNc1cc(-c2ccc(NC(=O)Nc3ccccc3Cl)cc2C(F)(F)F)ccn1
Parameter metric = inhibition. Return the lower-valued option from a and b . // respond with label for picked entry
a

P = CCNc1cc(-c2ccc(NC(=O)Nc3ccc(C(F)(F)F)cc3)cc2OC)ccn1
Q = CCNc1cc(-c2ccc(NC(=O)Nc3c(C)cccc3C)cc2C)ccn1
R = CCNc1cc(-c2ccc(NC(=O)Nc3cccc(Cl)c3)cc2F)ccn1
S = CCNc1cc(-c2ccc(NC(=O)Nc3cccc4ccccc34)cc2C(F)(F)F)ccn1
// sort entries: inhibition, high to low List each label, following the requested order.
R, P, Q, S
(R: 52.5%, P: 34.6%, Q: 8.7%, S: -4.29%)

Measured values drawn from ChEMBL document CHEMBL4251622 for this set.
